B1: Twister Ribozyme (parent)
chain: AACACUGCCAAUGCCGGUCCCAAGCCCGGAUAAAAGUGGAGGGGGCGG

# Variants of: B1
# assayRemarks: self-cleavage, relative activity (ratio to wild type); higher = more cleavage; co-transcriptional
property: self-cleavage
I only need the number, thanks.

A10C C25U; 0.782
G7C C8G; 0.0684

Task: Give me measured self-cleavage, please, for this variant: U18G C21U
Result: 0.0712

Task: Give a short answer stating reported self-cleavage for G29A C46G .
Result: 0.838
